# system: T1, GITR-hFc-Avi (human, UniProt Q9Y5U5 26-161)
# T1 construct: in-house produced; not shown: hFc and Avi part
# T1 sequence: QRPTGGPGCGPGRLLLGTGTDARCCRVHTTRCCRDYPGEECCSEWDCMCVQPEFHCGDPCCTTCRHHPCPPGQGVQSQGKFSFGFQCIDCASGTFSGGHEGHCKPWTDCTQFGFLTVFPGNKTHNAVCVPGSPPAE
# method.description: SPR, antigen immobilised on CM5 chip
measurement.type: binding result

Lookup result for G1AA/FS30-15 (antibody, human IgG1, kappa, L234A L235A, V domains shown, human IgG1 with LALA mutation in CH2; also called FS30-15 mAb) VH: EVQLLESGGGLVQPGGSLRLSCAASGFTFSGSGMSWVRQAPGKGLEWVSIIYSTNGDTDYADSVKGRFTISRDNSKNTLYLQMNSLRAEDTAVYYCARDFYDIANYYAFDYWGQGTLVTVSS VL: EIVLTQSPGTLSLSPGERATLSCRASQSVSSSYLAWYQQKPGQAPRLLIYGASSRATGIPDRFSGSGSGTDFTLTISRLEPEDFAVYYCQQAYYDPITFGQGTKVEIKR ; measured binding result: binds

binder FS20-22-49AA/FS30-15 (bispecific antibody, human IgG1, kappa, L234A L235A, V domains shown, also called FS30-15 in mAb^2 format) VH: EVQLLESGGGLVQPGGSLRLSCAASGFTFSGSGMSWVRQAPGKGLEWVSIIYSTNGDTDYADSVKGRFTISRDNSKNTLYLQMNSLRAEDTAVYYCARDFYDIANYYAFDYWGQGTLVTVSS VL: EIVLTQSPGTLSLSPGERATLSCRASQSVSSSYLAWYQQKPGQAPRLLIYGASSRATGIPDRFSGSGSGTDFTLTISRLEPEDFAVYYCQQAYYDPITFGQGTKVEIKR , binding result observed: binds
